Every entry's value here was drawn from patent US11555012B2.

- assayed.system: UniProt P53396
- Sequence (P53396 whole entry, species assumed): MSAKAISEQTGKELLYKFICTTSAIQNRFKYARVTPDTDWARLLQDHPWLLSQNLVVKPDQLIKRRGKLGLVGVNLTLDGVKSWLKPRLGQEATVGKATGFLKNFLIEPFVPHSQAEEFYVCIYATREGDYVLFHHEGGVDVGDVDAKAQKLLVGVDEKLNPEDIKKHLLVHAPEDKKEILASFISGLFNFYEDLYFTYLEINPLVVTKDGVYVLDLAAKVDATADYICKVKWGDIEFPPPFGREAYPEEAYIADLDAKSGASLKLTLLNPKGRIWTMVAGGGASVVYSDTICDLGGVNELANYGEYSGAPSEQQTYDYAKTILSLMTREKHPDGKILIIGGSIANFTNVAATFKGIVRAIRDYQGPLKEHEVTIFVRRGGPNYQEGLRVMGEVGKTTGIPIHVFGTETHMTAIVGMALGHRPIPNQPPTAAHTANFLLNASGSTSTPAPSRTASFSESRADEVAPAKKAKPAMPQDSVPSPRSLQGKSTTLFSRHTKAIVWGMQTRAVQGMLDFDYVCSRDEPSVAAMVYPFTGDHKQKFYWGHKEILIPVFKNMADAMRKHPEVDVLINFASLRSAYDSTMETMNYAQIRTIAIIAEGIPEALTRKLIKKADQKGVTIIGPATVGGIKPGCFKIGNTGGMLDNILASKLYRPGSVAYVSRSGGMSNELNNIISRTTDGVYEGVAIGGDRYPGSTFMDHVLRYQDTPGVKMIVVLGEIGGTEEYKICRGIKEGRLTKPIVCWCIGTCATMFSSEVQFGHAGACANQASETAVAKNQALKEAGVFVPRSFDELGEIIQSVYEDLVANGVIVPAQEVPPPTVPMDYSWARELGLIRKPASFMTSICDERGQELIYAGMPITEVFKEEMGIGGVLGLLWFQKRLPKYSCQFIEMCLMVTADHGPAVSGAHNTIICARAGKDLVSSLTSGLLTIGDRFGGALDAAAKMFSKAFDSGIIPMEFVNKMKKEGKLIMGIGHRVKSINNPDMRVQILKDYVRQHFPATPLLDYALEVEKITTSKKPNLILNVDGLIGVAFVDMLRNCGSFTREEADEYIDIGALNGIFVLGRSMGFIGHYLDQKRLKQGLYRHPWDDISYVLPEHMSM
- assay.remarks: ACLY-MDH Coupled Assay
pIC50: −log10 of the molar value.
measurement.label: pIC50

{"smiles.input": "CCN(c1ccc(Cl)cc1)S(=O)(=O)c1cc(Br)cc(Cl)c1O", "measurement.label": "pIC50", "result.value": "4.52 to 6.30"}
{"smiles.input": "O=C(O)c1ccc(C2CC2)cc1NS(=O)(=O)c1cc(Cl)cc(C(F)(F)F)c1", "measurement.label": "pIC50", "result.value": "4.52 to 6.30"}
{"smiles.input": "COc1ccc(-c2ccccc2)cc1NS(=O)(=O)c1c(C)c(Cl)cc(Cl)c1O", "measurement.label": "pIC50", "result.value": "6.30 to 7.30"}
{"smiles.input": "O=C(O)c1cc(Cl)c(O)c(S(=O)(=O)Nc2cc(-c3cccs3)c(F)cc2F)c1", "measurement.label": "pIC50", "result.value": "4.52 to 6.30"}
{"smiles.input": "O=C(O)c1ccc(F)c(NS(=O)(=O)c2cc(Cl)cc(Cl)c2O)c1", "measurement.label": "pIC50", "result.value": "4.52 to 6.30"}
{"smiles.input": "O=S(=O)(Nc1cc(-c2ccccc2)ccc1F)c1cc(Cl)cc(Br)c1O", "measurement.label": "pIC50", "result.value": "> 7.30"}
{"smiles.input": "CC(C)(Oc1ccc(-c2ccccc2)cc1NS(=O)(=O)c1cc(Cl)cc(Cl)c1O)C(=O)O", "measurement.label": "pIC50", "result.value": "4.52 to 6.30"}
{"smiles.input": "COc1ccc(-c2ccccc2)cc1NS(=O)(=O)c1cc(C(=O)N2CC(N)C2)cc(Cl)c1O", "measurement.label": "pIC50", "result.value": "6.30 to 7.30"}
{"smiles.input": "O=C(Nc1cc(-c2ccccc2)ccc1C(=O)O)c1cc(Cl)cc(C(F)(F)F)c1", "measurement.label": "pIC50", "result.value": "4.52 to 6.30"}
{"smiles.input": "O=S(=O)(Nc1cc(-c2ccccc2)ccc1F)c1cccc(Cl)c1O", "measurement.label": "pIC50", "result.value": "4.52 to 6.30"}
{"smiles.input": "O=C(O)COc1c(Br)cc(Cl)cc1S(=O)(=O)Nc1cc(-c2ccccc2)ccc1F", "measurement.label": "pIC50", "result.value": "4.52 to 6.30"}
{"smiles.input": "CC(=O)NCCOC(=O)c1cc(Cl)c(O)c(S(=O)(=O)Nc2cc(-c3ccccc3)c(F)cc2F)c1", "measurement.label": "pIC50", "result.value": "6.30 to 7.30"}
{"smiles.input": "O=C(Nc1cc(-c2ccccc2)c(F)cc1F)c1cc(Br)cc(Cl)c1O", "measurement.label": "pIC50", "result.value": "4.52 to 6.30"}
{"smiles.input": "O=C(O)c1ccc(-c2ccccc2)cc1NS(=O)(=O)c1c(Cl)nc2sccn12", "measurement.label": "pIC50", "result.value": "4.52 to 6.30"}
{"smiles.input": "O=C(O)c1ccc(-c2ccccc2)cc1NS(=O)(=O)CC1Cc2ccccc2C1", "measurement.label": "pIC50", "result.value": "4.52 to 6.30"}
{"smiles.input": "O=C(Nc1cc(-c2ccccc2)ccc1C(=O)O)c1cc(Cl)cc(Cl)c1", "measurement.label": "pIC50", "result.value": "4.52 to 6.30"}
{"smiles.input": "COC(=O)c1cc(Cl)c(O)c(S(=O)(=O)Nc2cc(-c3ccccc3)c(F)cc2F)c1C", "measurement.label": "pIC50", "result.value": "6.30 to 7.30"}
{"smiles.input": "O=C(c1cc(Cl)c(O)c(S(=O)(=O)Nc2cc(C3CC3)c(F)cc2F)c1)N1CCC1", "measurement.label": "pIC50", "result.value": "6.30 to 7.30"}
{"smiles.input": "O=C(O)c1ncc(-c2ccccc2)cc1NS(=O)(=O)c1cc(Cl)cc(Cl)c1", "measurement.label": "pIC50", "result.value": "4.52 to 6.30"}
{"smiles.input": "O=C(c1cc(Cl)c(O)c(S(=O)(=O)Nc2cc(-n3nccn3)ccc2F)c1)N1CCC1", "measurement.label": "pIC50", "result.value": "4.52 to 6.30"}
{"smiles.input": "O=c1[nH]cc(C(F)(F)F)cc1S(=O)(=O)Nc1cc(-c2ccccc2)ccc1F", "measurement.label": "pIC50", "result.value": "4.52 to 6.30"}
{"smiles.input": "O=S(=O)(c1cc(Br)cc(Cl)c1O)N(Cc1cncs1)c1ccc(Cl)cc1", "measurement.label": "pIC50", "result.value": "4.52 to 6.30"}
{"smiles.input": "O=C(O)c1ccc(-c2ccccc2)cc1NS(=O)(=O)Cc1ccc(C(F)(F)F)cc1", "measurement.label": "pIC50", "result.value": "4.52 to 6.30"}
{"smiles.input": "O=C(O)c1ccc(-c2cc3ccccc3s2)cc1NS(=O)(=O)c1cc(Cl)cc(C(F)(F)F)c1", "measurement.label": "pIC50", "result.value": "4.52 to 6.30"}
{"smiles.input": "COc1ccc(-c2ccc(F)cc2)cc1NS(=O)(=O)c1cc(Cl)cc(Cl)c1O", "measurement.label": "pIC50", "result.value": "6.30 to 7.30"}
{"smiles.input": "CO[C@@H]1CCN(C(=O)c2cc(Cl)c(O)c(S(=O)(=O)Nc3cc(-c4ccccc4)c(F)cc3F)c2)C1", "measurement.label": "pIC50", "result.value": "4.52 to 6.30"}
{"smiles.input": "CO[C@@H]1CCN(C(=O)c2cc(Cl)c(O)c(S(=O)(=O)Nc3cc(-c4ccccc4)ccc3F)c2)C1", "measurement.label": "pIC50", "result.value": "4.52 to 6.30"}
{"smiles.input": "O=C(O)c1ccc(-c2ccccc2)cc1NS(=O)(=O)c1cc(Cl)cc(C(F)(F)F)c1", "measurement.label": "pIC50", "result.value": "6.30 to 7.30"}
{"smiles.input": "O=S(=O)(Nc1cc(-c2ccccc2)ccc1F)c1cc(Br)cc(Cl)c1O", "measurement.label": "pIC50", "result.value": "> 7.30"}
{"smiles.input": "CNC(=O)c1cc(Cl)c(O)c(S(=O)(=O)Nc2cc(-c3ccccc3)ccc2OC)c1", "measurement.label": "pIC50", "result.value": "4.52 to 6.30"}
{"smiles.input": "CC(C)C(=O)Oc1c(Cl)cc(C(=O)N2CCC2)cc1S(=O)(=O)Nc1cc(-c2ccccc2)c(F)cc1F", "measurement.label": "pIC50", "result.value": "6.30 to 7.30"}
{"smiles.input": "O=C(Nc1cc(-c2ccccc2)c(F)cc1C(=O)O)c1cc(Cl)cc(Cl)c1", "measurement.label": "pIC50", "result.value": "4.52 to 6.30"}
